Assay name: PK study of ABT-737 formulations in rats
Assay type: in vivo, Sprague-Dawley rats
Condition parameters: Sprague-Dawley, rat, plasma, po, 5 mg/kg, rats, 5 mg/kg oral; carrier D5W/PG/DMSO/Tween (70:20:5:5); 5 mg/ml
Measurement type: AUC(0-inf) (ng·h/mL)

[
  {
    "Molecule": "CN(C)CC[C@H](CSc1ccccc1)Nc1ccc(S(=O)(=O)NC(=O)c2ccc(N3CCN(Cc4ccccc4-c4ccc(Cl)cc4)CC3)cc2)cc1[N+](=O)[O-]",
    "Result": 230
  }
]

====

Assay name: PK study of ABT-737 formulations in rats
Format: in vivo, Sprague-Dawley rats
Condition parameters: Sprague-Dawley, rat, plasma, po, 5 mg/kg, rats, 5 mg/kg oral; carrier Imwitor 380 (unneutralized)/ethanol (95:5); 10 mg/ml; read-out: Bioavailability (F %)

[
  {
    "Molecule": "CN(C)CC[C@H](CSc1ccccc1)Nc1ccc(S(=O)(=O)NC(=O)c2ccc(N3CCN(Cc4ccccc4-c4ccc(Cl)cc4)CC3)cc2)cc1[N+](=O)[O-]",
    "Measure unit": "%",
    "bioavailability": 3.9
  }
]

====

Assay name: PK study of ABT-737 formulations in rats
Format: in vivo, Sprague-Dawley rats
Condition parameters: Sprague-Dawley, rat, plasma, po, 5 mg/kg, rats, 5 mg/kg oral; carrier Phosal 53 MCT/ethanol (90:10); 10 mg/ml; read-out: Cmax

[
  {
    "Compound": "CN(C)CC[C@H](CSc1ccccc1)Nc1ccc(S(=O)(=O)NC(=O)c2ccc(N3CCN(Cc4ccccc4-c4ccc(Cl)cc4)CC3)cc2)cc1[N+](=O)[O-] [ABT-737]",
    "Cmax / ng/mL": 28
  }
]

====

Assay name: PK study of ABT-737 formulations in rats
Type: in vivo, Sprague-Dawley rats
Condition parameters: Sprague-Dawley, rat, plasma, po, 5 mg/kg, rats, 5 mg/kg oral; carrier Phosal 50 PG/ethanol (90:10); 50 mg/ml; read-out: Bioavailability (F %)

[
  {
    "Molecule": "CN(C)CC[C@H](CSc1ccccc1)Nc1ccc(S(=O)(=O)NC(=O)c2ccc(N3CCN(Cc4ccccc4-c4ccc(Cl)cc4)CC3)cc2)cc1[N+](=O)[O-] [ABT-737]",
    "bioavailability [%]": 1.5
  }
]

====

Assay name: PK study of ABT-737 formulations in rats
Type: in vivo, Sprague-Dawley rats
Condition parameters: Sprague-Dawley, rat, plasma, po, 5 mg/kg, rats, 5 mg/kg oral; carrier Phosal 50 PG/ethanol (90:10); 50 mg/ml; read-out: Cmax

[
  {
    "Molecule": "CN(C)CC[C@H](CSc1ccccc1)Nc1ccc(S(=O)(=O)NC(=O)c2ccc(N3CCN(Cc4ccccc4-c4ccc(Cl)cc4)CC3)cc2)cc1[N+](=O)[O-]",
    "Cmax": "24 ng/mL"
  }
]

====

Assay name: PK study of ABT-737 formulations in rats
Type: in vivo, Sprague-Dawley rats
Condition parameters: Sprague-Dawley, rat, plasma, po, 5 mg/kg, rats, 5 mg/kg oral; carrier Imwitor 380 (unneutralized)/ethanol (95:5); 10 mg/ml

[
  {
    "Molecule": "CN(C)CC[C@H](CSc1ccccc1)Nc1ccc(S(=O)(=O)NC(=O)c2ccc(N3CCN(Cc4ccccc4-c4ccc(Cl)cc4)CC3)cc2)cc1[N+](=O)[O-]",
    "AUC(0-inf) [ng·h/mL]": 150
  }
]

====

Assay name: PK study of ABT-737 formulations in rats
Assay type: in vivo, Sprague-Dawley rats
Condition parameters: Sprague-Dawley, rat, plasma, po, 5 mg/kg, rats, 5 mg/kg oral; carrier Phosal 53 MCT/ethanol (90:10); 10 mg/ml

[
  {
    "Compound": "CN(C)CC[C@H](CSc1ccccc1)Nc1ccc(S(=O)(=O)NC(=O)c2ccc(N3CCN(Cc4ccccc4-c4ccc(Cl)cc4)CC3)cc2)cc1[N+](=O)[O-] [ABT-737]",
    "AUC(0-inf) (ng·h/mL)": 130
  }
]

====

Assay name: PK study of ABT-737 formulations in rats
Format: in vivo, Sprague-Dawley rats
Condition parameters: Sprague-Dawley, rat, plasma, po, 5 mg/kg, rats, 5 mg/kg oral; carrier Imwitor 380 (unneutralized)/ethanol (95:5); 10 mg/ml; read-out: Cmax

[
  {
    "Molecule": "CN(C)CC[C@H](CSc1ccccc1)Nc1ccc(S(=O)(=O)NC(=O)c2ccc(N3CCN(Cc4ccccc4-c4ccc(Cl)cc4)CC3)cc2)cc1[N+](=O)[O-]",
    "Cmax (ng/mL)": 29
  }
]

====

Assay name: PK study of ABT-737 formulations in rats
Assay type: in vivo, Sprague-Dawley rats
Condition parameters: Sprague-Dawley, rat, plasma, po, 5 mg/kg, rats, 5 mg/kg oral; carrier D5W/PG/DMSO/Tween (70:20:5:5); 5 mg/ml; read-out: Bioavailability (F %)

[
  {
    "Molecule": "CN(C)CC[C@H](CSc1ccccc1)Nc1ccc(S(=O)(=O)NC(=O)c2ccc(N3CCN(Cc4ccccc4-c4ccc(Cl)cc4)CC3)cc2)cc1[N+](=O)[O-]",
    "bioavailability, %": 5.9
  }
]
